# assayed.system: T1, VLP2 (virus-like particles of AAV2) (AAV2, UniProt P03135 1-735; P03135 1-598; P03135 1-533)
# T1 construct: Empty AAV2 capsid; background says about 60 protein molecules, VP1:VP2:VP3 = 1:1:10; Immobilised on the ELISA plate
# T1 sequence (P03135 whole entry, chain 1 of 3): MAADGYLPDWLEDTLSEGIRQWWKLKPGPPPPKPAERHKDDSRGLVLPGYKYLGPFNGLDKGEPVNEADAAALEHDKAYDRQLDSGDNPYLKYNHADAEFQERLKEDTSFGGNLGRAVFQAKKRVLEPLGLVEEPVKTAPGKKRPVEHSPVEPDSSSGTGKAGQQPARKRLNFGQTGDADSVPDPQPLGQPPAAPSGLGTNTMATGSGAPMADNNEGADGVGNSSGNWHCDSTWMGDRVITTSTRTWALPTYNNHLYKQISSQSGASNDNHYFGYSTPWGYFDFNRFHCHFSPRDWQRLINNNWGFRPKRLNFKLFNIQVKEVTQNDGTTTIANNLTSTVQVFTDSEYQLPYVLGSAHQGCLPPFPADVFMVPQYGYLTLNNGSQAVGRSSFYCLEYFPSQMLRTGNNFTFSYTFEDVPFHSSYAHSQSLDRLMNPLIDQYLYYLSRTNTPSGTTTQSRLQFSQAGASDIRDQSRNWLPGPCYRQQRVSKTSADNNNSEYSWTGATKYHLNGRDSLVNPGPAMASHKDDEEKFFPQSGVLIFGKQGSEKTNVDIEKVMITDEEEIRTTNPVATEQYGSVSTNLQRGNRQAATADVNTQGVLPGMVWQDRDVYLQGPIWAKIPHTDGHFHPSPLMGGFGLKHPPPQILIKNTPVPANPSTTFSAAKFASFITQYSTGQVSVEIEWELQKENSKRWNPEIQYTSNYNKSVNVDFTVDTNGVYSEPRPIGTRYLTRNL
# T1 sequence (P03135 139-735, tags left off, chain 2 of 3): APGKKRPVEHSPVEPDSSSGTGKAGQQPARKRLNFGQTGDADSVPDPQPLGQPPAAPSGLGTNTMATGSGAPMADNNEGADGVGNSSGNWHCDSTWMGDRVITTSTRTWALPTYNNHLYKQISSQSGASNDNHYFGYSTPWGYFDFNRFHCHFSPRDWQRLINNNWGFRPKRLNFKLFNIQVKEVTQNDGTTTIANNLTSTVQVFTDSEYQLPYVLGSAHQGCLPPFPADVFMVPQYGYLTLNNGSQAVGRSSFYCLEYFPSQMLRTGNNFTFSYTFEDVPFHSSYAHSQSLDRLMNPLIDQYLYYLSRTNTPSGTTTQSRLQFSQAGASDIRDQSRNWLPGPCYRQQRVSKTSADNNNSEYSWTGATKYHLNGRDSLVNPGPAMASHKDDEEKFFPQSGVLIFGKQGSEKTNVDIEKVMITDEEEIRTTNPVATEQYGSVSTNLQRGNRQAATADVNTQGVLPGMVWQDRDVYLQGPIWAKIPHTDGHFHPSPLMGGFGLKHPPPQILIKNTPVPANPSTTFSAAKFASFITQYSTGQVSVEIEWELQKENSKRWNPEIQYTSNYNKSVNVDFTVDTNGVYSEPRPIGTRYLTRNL
# T1 sequence (P03135 203-735, chain 3 of 3): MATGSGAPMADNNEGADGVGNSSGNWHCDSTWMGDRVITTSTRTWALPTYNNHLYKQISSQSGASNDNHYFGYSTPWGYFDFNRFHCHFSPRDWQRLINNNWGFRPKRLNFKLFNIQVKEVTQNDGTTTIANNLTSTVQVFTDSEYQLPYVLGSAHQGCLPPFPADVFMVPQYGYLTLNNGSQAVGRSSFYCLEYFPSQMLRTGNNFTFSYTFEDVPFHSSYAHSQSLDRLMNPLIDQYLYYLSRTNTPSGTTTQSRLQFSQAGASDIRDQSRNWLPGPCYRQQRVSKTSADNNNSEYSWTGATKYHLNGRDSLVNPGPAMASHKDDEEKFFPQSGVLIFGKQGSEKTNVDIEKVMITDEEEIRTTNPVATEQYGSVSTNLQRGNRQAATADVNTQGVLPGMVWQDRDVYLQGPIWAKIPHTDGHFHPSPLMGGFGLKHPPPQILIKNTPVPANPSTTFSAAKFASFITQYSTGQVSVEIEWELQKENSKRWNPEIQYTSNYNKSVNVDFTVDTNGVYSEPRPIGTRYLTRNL
# assay.text: ELISA on VLP2; binding after pH 10.0 41.2°C 15 min / untreated
Measured Residual activity [%] values are reported for all entries that follow.
Quick note: give the figure in %, leave out the unit.

- binder: "AAV-binding protein No. 149 (AVR8g + Val394Ile, Asn395Ser, Thr426Ala) (receptor) MGSAGESDQITLPKNEVQLNAYVLQEPPKGETCTYDWQLITHPRDYSGEMEGEHSQILKLSNLTPGLYEFKVIVEGQNAHSEGYISVTVEPEPRKNRPPIAIVSPQFQEISLPTTSAVIDGSQSTDDDKIVQYHWEELKGPLREEKISEDTAILKLSKLVPGNYTFRLTVVDSDGATDSTTANLTVNKAVDHHHHHH"
  Residual activity [%], %: 70.5
- binder: "AAV-binding protein No. 141 (AVR8g + Leu376Pro, Gly(Ser)390Gly) (receptor, Gly(Ser)390Gly read as Ser390 of AVR8g back to the wild-type Gly, so Gly390Ser is not applied) MGSAGESDQITLPKNEVQLNAYVLQEPPKGETCTYDWQLITHPRDYSGEMEGEHSQILKLSNLTPGPYEFKVIVEGQNAHGEGYVNVTVEPEPRKNRPPIAIVSPQFQEISLPTTSTVIDGSQSTDDDKIVQYHWEELKGPLREEKISEDTAILKLSKLVPGNYTFRLTVVDSDGATDSTTANLTVNKAVDHHHHHH"
  Residual activity [%], %: 85

Okay, next one:
// query Residual activity [%] value for entry AAV-binding protein No. 112 (AVR8g + Ser364Leu) (receptor) MGSAGESDQITLPKNEVQLNAYVLQEPPKGETCTYDWQLITHPRDYSGEMEGEHLQILKLSNLTPGLYEFKVIVEGQNAHSEGYVNVTVEPEPRKNRPPIAIVSPQFQEISLPTTSTVIDGSQSTDDDKIVQYHWEELKGPLREEKISEDTAILKLSKLVPGNYTFRLTVVDSDGATDSTTANLTVNKAVDHHHHHH
45.3
